- Test system: S. cerevisiae AD1-9 (efflux-pump deficient), vegetative growth in YPD
- assay_summary: growth sensitivity score (doubling time z-score vs DMSO controls); higher = slower growth, strongly negative scores also mark growth inhibition (complete suppression), active = hit call of the paper
- recorded_conditions: stock concentration (mM, diluted 1:100): 10
reported_endpoint: growth sensitivity score

{"columns": ["molecule", "tested_system", "reported_endpoint", "endpoint_value"],
 "data": [
  ["FC(F)(F)c1cccc(N2CCNCC2)c1", "S. cerevisiae AD1-9 (efflux-pump deficient), vegetative growth in YPD", "growth sensitivity score", 2.22],
  ["CN1C(=O)COc2c(C(=O)NC3CN4CCC3CC4)cc(Cl)cc21 (stereo not drawn) [Azasetron]", "S. cerevisiae AD1-9 (efflux-pump deficient), vegetative growth in YPD", "growth sensitivity score", -0.58],
  ["CN1C(=O)CN=C(c2ccccc2)c2cc(Cl)ccc21 [Diazepam]", "S. cerevisiae AD1-9 (efflux-pump deficient), vegetative growth in YPD", "growth sensitivity score", 5.55]
]}

Hey, just so you know, these numbers are from the supplement of paper PMC3414501.
